Entry source: the kinase profiling compilation of Christmann-Franck et al. (2016)

# target.of.assay: PTK2B (human)
# test.method.notes: radiometric filter-binding kinase assay, Kinase HotSpot
# condition.parameters: compound 0.5 µM; ATP 10 µM
Reported residual activity values follow for various compounds
outcome.measure: residual activity

1) Nc1ncnc2[nH]nc(Nc3ccc(F)cc3)c12 | 101%
2) O=c1cc(N2CCOCC2)oc2c1ccc1ccccc12 | 94.3%
3) CC(C)N(CCC(=O)c1ccc2ccccc2c1)Cc1ccccc1 | 106%
4) O=C1NC(=O)/C(=C/c2ccc3c(c2)OC(F)(F)O3)S1 | 110%
5) Cc1ccc(S(=O)(=O)/C=C/C#N)cc1 | 92.8%
6) COc1ccc(COc2ccc(Cc3cnc(N)nc3N)cc2OC)cc1 | 86.1%
7) O=C(Nc1cccc(Nc2nccc(Nc3cccc(C(F)(F)F)c3)n2)c1)C1CC1 | 90.9%
8) CO[C@H]1CC2CC[C@@H](C)[C@@](O)(O2)C(=O)C(=O)N2CCCC[C@H]2C(=O)OC([C@H](C)C[C@@H]2CC[C@@H](O)[C@H](OC)C2)CC(=O)[C@H](C)/C=C(\C)[C@@H](O)[C@@H](OC)C(=O)[C@H](C)C[C@H](C)/C=C/C=C/C=C/1C (some centres undefined) | 94.2%
9) CCOC(=O)c1c(C)[nH]c(/C=C2\C(=O)Nc3ccccc32)c1C | 80.6%

###

# target.of.assay: MAP2K1 (human) (UniProt Q02750)
# Sequence (Q02750 whole entry, looked up): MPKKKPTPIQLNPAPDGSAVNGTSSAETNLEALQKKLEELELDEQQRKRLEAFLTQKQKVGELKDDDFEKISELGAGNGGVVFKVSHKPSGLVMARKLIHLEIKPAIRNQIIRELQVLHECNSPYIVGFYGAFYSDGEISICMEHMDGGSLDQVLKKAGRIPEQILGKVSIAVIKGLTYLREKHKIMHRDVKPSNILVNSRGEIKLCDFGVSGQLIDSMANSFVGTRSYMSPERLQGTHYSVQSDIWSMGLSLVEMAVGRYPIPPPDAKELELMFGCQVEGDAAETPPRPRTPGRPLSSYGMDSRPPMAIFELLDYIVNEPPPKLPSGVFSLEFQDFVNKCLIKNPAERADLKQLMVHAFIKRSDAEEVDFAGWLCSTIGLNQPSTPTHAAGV
# test.method.notes: radiometric filter-binding kinase assay, Kinase HotSpot
# condition.parameters: compound 0.5 µM; ATP 10 µM
outcome.measure: residual activity (%)

1) c1ccc(-c2n[nH]cc2-c2ccnc3ccccc23)nc1 | 93.7
2) CNC(=O)c1cc(Oc2ccc(NC(=O)Nc3ccc(Cl)c(C(F)(F)F)c3)cc2)ccn1 | 102
3) CCC(=O)Nc1ccc2ncnc(Nc3cccc(Br)c3)c2c1 | 105
4) CO[C@H]1CC2CC[C@@H](C)[C@@](O)(O2)C(=O)C(=O)N2CCCC[C@H]2C(=O)OC([C@H](C)C[C@@H]2CC[C@@H](O)[C@H](OC)C2)CC(=O)[C@H](C)/C=C(\C)[C@@H](O)[C@@H](OC)C(=O)[C@H](C)C[C@H](C)/C=C/C=C/C=C/1C (stereo not given in full) | 92.1
5) CNc1cc2c(Nc3cccc(Br)c3)ncnc2cn1 | 74.6
6) O=S(=O)(c1cccc2cnccc12)N1CCCNCC1 | 83
7) Nc1cccc(-c2cc3c(Oc4cccc(O)c4)ncnc3[nH]2)c1 | 76.3
8) c1ccc(-c2n[nH]c3c2oc2ccccc23)cc1 | 96.4
9) O=c1cc(N2CCOCC2)oc2c1ccc1ccccc12 | 99.3
10) CC(C)N(CCC(=O)c1ccc2ccccc2c1)Cc1ccccc1 | 82.5

###

Reported residual activity values follow for various compounds
# target.of.assay: DYRK4 (human)
# test.method.notes: radiometric filter-binding kinase assay, Kinase HotSpot
# condition.parameters: compound 0.5 µM; ATP 10 µM
outcome.measure: residual activity (%)

1. CC#CC(=O)Nc1cc2c(Nc3ccc(F)c(Cl)c3)ncnc2cn1 | 98
2. COc1ccc2c(c[n+](C)c3c4cc5c(cc4ccc23)OCO5)c1OC | 95.1
3. Cc1ccc(S(=O)(=O)/C=C/C#N)cc1 | 95.1
4. O=C1NC(=O)/C(=C/c2ccc3c(c2)OC(F)(F)O3)S1 | 97.7
5. O=C1NC(=O)C(c2cn(CCCn3ccnc3)c3ccccc23)=C1Nc1ccccc1 | 89
6. Nc1ncnc2[nH]nc(Nc3ccc(F)cc3)c12 | 104
7. CCC(=O)Nc1ccc2ncnc(Nc3cccc(Br)c3)c2c1 | 113
8. O=C(Nc1cccc(Nc2nccc(Nc3cccc(C(F)(F)F)c3)n2)c1)C1CC1 | 107
9. CCOC(=O)c1c(C)[nH]c(/C=C2\C(=O)Nc3ccccc32)c1C | 99.6
10. CCN(CC)CCNC(=O)c1c(C)[nH]c(/C=C2\C(=O)Nc3ccc(Cl)cc32)c1C | 97.9
11. Oc1cccc(-c2nc(N3CCOCC3)c3oc4ncccc4c3n2)c1 | 96.6

###

Reported residual activity values follow for various molecules
# target.of.assay: DAPK2 (human) (UniProt Q9UIK4)
# Sequence (Q9UIK4 whole entry, looked up): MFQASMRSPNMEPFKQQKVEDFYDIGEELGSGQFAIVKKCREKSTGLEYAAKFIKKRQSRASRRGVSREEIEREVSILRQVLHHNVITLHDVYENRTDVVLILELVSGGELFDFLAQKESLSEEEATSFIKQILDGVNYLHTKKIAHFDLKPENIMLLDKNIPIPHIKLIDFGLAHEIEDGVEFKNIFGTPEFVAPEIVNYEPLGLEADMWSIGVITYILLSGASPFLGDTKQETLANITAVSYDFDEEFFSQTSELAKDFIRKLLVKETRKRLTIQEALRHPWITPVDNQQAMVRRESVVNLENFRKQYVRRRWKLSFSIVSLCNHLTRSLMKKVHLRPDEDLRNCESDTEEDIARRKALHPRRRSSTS
# test.method.notes: radiometric filter-binding kinase assay, Kinase HotSpot
# condition.parameters: compound 0.5 µM; ATP 10 µM
outcome.measure: residual activity

1) CO[C@H]1CC2CC[C@@H](C)[C@@](O)(O2)C(=O)C(=O)N2CCCC[C@H]2C(=O)OC([C@H](C)C[C@@H]2CC[C@@H](O)[C@H](OC)C2)CC(=O)[C@H](C)/C=C(\C)[C@@H](O)[C@@H](OC)C(=O)[C@H](C)C[C@H](C)/C=C/C=C/C=C/1C (stereo partly drawn) | 112%
2) Cc1[nH]c(/C=C2\C(=O)Nc3ccc(S(=O)(=O)N(C)c4cccc(Cl)c4)cc32)c(C)c1C(=O)N1CCN(C)CC1 | 111%
3) CCN(CC)C(=O)c1ccc(Nc2nc(OCC3CCCCC3)c3nc[nH]c3n2)cc1 | 91.7%

###

# target.of.assay: UniProt Q15831
# Sequence (Q15831 whole entry, looked up): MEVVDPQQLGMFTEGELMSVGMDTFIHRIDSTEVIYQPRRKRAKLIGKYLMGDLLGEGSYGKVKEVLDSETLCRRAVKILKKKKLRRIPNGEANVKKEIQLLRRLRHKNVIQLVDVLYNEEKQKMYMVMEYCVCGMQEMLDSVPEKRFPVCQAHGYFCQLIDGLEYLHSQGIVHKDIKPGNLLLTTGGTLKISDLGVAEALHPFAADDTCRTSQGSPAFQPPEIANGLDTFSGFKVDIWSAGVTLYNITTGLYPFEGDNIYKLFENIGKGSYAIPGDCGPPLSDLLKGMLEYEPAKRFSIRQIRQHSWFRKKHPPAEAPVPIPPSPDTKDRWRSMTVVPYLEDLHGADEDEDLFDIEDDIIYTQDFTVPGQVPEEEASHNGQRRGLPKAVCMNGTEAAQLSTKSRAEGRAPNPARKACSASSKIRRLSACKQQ
# test.method.notes: radiometric filter-binding kinase assay, Kinase HotSpot
# condition.parameters: compound 0.5 µM; ATP 10 µM
# label = Criterion met if residual activity >= 90% else Criterion not met

1. Nc1ccc2ncnc(NCCc3ccc(Oc4ccccc4)cc3)c2c1 | Criterion met
2. CCN(CC)CCNC(=O)c1c(C)[nH]c(/C=C2\C(=O)Nc3ccc(F)cc32)c1C | Criterion met
3. Oc1cccc(-c2nc(N3CCOCC3)c3oc4ncccc4c3n2)c1 | Criterion not met
4. CCN(CC)C(=O)c1ccc(Nc2nc(OCC3CCCCC3)c3nc[nH]c3n2)cc1 | Criterion not met
5. COc1ccc2c(c[n+](C)c3c4cc5c(cc4ccc23)OCO5)c1OC | Criterion not met
6. CC(=O)c1ccc(N2CCOCC2)cc1O | Criterion met
7. CC(C)N(CCC(=O)c1ccc2ccccc2c1)Cc1ccccc1 | Criterion met

###

Reported residual activity values follow for various molecules
# target.of.assay: DSTYK (human) (UniProt Q6XUX3)
# Sequence (Q6XUX3 whole entry, looked up): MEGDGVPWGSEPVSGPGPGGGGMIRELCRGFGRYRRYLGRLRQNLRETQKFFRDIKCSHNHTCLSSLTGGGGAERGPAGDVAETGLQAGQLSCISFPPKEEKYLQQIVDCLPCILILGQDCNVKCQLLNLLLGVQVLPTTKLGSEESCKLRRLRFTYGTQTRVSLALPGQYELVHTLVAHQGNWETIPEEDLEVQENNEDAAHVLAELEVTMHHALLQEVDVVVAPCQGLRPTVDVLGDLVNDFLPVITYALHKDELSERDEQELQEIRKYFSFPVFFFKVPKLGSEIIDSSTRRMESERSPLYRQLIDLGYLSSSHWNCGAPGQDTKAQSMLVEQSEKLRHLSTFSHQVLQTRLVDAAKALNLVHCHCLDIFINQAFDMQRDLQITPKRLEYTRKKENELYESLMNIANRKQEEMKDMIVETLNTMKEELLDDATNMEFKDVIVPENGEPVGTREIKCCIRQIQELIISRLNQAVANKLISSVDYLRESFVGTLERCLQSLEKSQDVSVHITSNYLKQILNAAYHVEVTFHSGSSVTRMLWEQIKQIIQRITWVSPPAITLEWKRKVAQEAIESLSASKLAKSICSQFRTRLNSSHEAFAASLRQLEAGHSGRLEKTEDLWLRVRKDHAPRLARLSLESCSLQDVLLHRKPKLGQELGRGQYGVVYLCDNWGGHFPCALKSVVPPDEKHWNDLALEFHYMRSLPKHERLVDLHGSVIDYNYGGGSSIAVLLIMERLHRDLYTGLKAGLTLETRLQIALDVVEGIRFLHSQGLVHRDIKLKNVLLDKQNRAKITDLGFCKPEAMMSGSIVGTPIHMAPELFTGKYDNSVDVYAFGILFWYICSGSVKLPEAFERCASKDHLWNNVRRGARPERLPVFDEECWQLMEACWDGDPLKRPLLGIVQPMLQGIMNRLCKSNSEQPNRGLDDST
# test.method.notes: radiometric filter-binding kinase assay, Kinase HotSpot
# condition.parameters: compound 0.5 µM; ATP 10 µM
outcome.measure: residual activity (%)

1) Nc1ncnc2[nH]nc(Nc3ccc(F)cc3)c12 | 109
2) COc1ccc2c(c[n+](C)c3c4cc5c(cc4ccc23)OCO5)c1OC | 86.4
3) CNc1cc2c(Nc3cccc(Br)c3)ncnc2cn1 | 94.1
4) CCCC(=O)Oc1ccc2[nH]c(C(=O)c3cc4ccccc4[nH]3)cc2c1 | 94.9
5) COc1cc2ncnc(Nc3cccc(Cl)c3)c2cc1OC | 90.8
6) O=C(Nc1cccc(Nc2nccc(Nc3cccc(C(F)(F)F)c3)n2)c1)C1CC1 | 93.8
7) c1ccc(-c2n[nH]cc2-c2ccnc3ccccc23)nc1 | 98.3
8) CNC(=O)c1cc(Oc2ccc(NC(=O)Nc3ccc(Cl)c(C(F)(F)F)c3)cc2)ccn1 | 97.7
9) CC[n+]1c(/C=C/N(C)c2ccccc2)n(-c2ccccc2)c2ccc(-c3nc4ccccc4s3)cc21 | 103
10) CC(=O)c1ccc(N2CCOCC2)cc1O | 95.3
11) Cc1ccc(S(=O)(=O)/C=C/C#N)cc1 | 97.8

###

# target.of.assay: CAMK2A (human) (UniProt Q9UQM7)
# Sequence (Q9UQM7 whole entry, looked up): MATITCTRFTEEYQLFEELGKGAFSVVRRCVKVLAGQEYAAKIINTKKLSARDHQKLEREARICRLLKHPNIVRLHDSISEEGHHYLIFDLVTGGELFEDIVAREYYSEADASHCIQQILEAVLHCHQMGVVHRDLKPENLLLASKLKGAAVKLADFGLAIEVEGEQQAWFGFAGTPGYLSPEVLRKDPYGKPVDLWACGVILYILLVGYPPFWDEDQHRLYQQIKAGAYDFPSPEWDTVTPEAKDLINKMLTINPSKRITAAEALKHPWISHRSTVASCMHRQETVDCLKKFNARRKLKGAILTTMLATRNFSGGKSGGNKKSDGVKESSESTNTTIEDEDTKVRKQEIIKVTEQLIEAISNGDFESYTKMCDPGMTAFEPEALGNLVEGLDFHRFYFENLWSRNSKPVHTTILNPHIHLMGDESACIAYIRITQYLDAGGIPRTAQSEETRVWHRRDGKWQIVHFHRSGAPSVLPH
# test.method.notes: radiometric filter-binding kinase assay, Kinase HotSpot
# condition.parameters: compound 0.5 µM; ATP 10 µM
Reported residual activity values follow for various compounds
outcome.measure: residual activity (%)

1) CNc1cc2c(Nc3cccc(Br)c3)ncnc2cn1 | 105
2) COc1cc2ncnc(Nc3cccc(Cl)c3)c2cc1OC | 98.2
3) N#CC(C#N)=C(N)/C(C#N)=C/c1ccc(O)cc1 | 103
4) O=C1NC(=O)C(c2cn(CCCn3ccnc3)c3ccccc23)=C1Nc1ccccc1 | 95.5
5) O=C1Nc2ccc(Cl)cc2/C1=C/c1cc(Cl)c(O)c(Cl)c1 | 92.9
6) CNC(=O)c1cc(Oc2ccc(NC(=O)Nc3ccc(Cl)c(C(F)(F)F)c3)cc2)ccn1 | 95.3
7) CCCC(=O)Oc1ccc2[nH]c(C(=O)c3cc4ccccc4[nH]3)cc2c1 | 87
8) Cc1ccc(Nc2nccc(N(C)c3ccc4c(C)n(C)nc4c3)n2)cc1S(N)(=O)=O | 95.6
9) Cc1[nH]c(/C=C2\C(=O)Nc3ccc(S(=O)(=O)N(C)c4cccc(Cl)c4)cc32)c(C)c1C(=O)N1CCN(C)CC1 | 73.8
10) CCC(=O)Nc1ccc2ncnc(Nc3cccc(Br)c3)c2c1 | 85.7
11) CCOC(=O)c1c(C)[nH]c(/C=C2\C(=O)Nc3ccccc32)c1C | 96.8
12) O=C(Nc1cccc(Nc2nccc(Nc3cccc(C(F)(F)F)c3)n2)c1)C1CC1 | 98
13) Nc1ncnc2[nH]nc(Nc3ccc(F)cc3)c12 | 105
14) COc1ccc2c(c[n+](C)c3c4cc5c(cc4ccc23)OCO5)c1OC | 99.5
15) CCN(CC)C(=O)c1ccc(Nc2nc(OCC3CCCCC3)c3nc[nH]c3n2)cc1 | 105
